Procedure text: In vivo pharmacokinetic study, oral formulations
Condition notes: mouse, plasma, 60 mg/kg, mice, oral 60 mg/kg in 0.5% HPC, 8 h
Observable: concentration at 8 h (ng/mL)
A number alone suffices; assume ng/mL.

Name the recorded concentration at 8 h for `COc1ccc2[nH]c(C(=O)c3ccc4[nH]nc(C)c4c3)cc2c1` . 34.7
